- Measurement Notes: yeast display, Sf9 membrane polyspecificity reagent, FACS + sequencing; frameworks hold sequencing errors
Endpoint Name: polyreactivity (PSR sort gate)

QVQLVESGGGLLQAGGSLRLSCAASGRTFPYYAMGWYRQAPGKERELVAAISSSGGSTYYADSVKGRFTISRDNAKNTVYLEMNSLKPEDTEVYYCAAVYQFIKWGDSYEYWGQGTQVTVSS    high polyreactivity
QVHLVESGGGLVHAGGSLRVSCAASGYTFHRYAMGWYRQAPGKERELVAAITRGGGSTRYADSVKGRFTISRDNAKYTVYLQMNSLKPEDTAVYYCAAERRTPGRTTYYYWGQGTQVSVSS    high polyreactivity
QVQLVESGGGLVQAGGSLRLSCAASGRIFAVNAMGWYRQAPGKERELVAAINGGGSTNYADSVKGRFTISRDNAKNTVYFQMNSLKPEDTAVYYCAADVGWRSQTRGYYWGQGTQVTVSS    high polyreactivity
QVQLVESGGRLVQAGGSHRLRCAASGFIFKHNAMGWYRQAPGQEREFVARISWSGGSTRYADSVKGRFTISRDNAKNTVYLQMNSLKPEDTAVYYCAADQLGNDMDYWGQGTQVTVSS    low polyreactivity
QVQLVESGGGLVQAGGSLRLSCAASGRTFAWYAMGWYRQAPGKERELVAVIRRGSGDTYYADSVKGRFTISRDNAKNTVYLQMNSLKPEDTAVYYCAAEGRFSFYGGGRPKYSRYDYWGQGTQVTVSS    high polyreactivity

Item under review: `QVQLQESAGLVQAGGLRLSCAASGSVSYQEAMGWYRQAPGKERELVATMSFGANTNYADSVKVRFTISRDNAKNTVYLQMNSLKPEETAVYYCAAESLFDDYYGYWGQGTQVTVSS` . Reported polyreactivity (PSR sort gate)?
low polyreactivity

Item under review: `QVQLVESGGGLVQAGGSLRLSCAASGFIFRYNTMGWYRQEPGKERELVAAISKSGGRTYYADSVKGRFTISRDNAMNTVYLQMNSLNPEDTAVYYCAATLSYTGSKRYDYWGQGTQVTVSS` . Reported polyreactivity (PSR sort gate)?
high polyreactivity

Item under review: `QVQIVESGGGLVQAGGSLRLSCAASGNTFPAYAMGWYRQAPGKERELVATISWSTGSTNYADSVKGRFTISRDNANNTVYLQMNSLKPEDTAVYYCNKRYPTDQMYYWGQGTLVTVSS` . Reported polyreactivity (PSR sort gate)?
low polyreactivity

Item under review: `QVQLVESGGGLVQAGGSLRLSCAASGFIFVYYAMGWYRQAPGKERELVAAISKRGGNTYYADSVKGRFTISRDNAKNTVYLQMNSLKPEDTAVYYCAAGFTTRRGEYNYWGQGTQVTVSS` . Reported polyreactivity (PSR sort gate)?
high polyreactivity

Item under review: `QVQLVESGGGLVQAGGSLRLSCAASGRTFFWYAMGWYRQAPGKERELVAAISSSTRTKYADSVKGRFTISRDNAKNTVYLQMNSLKPEDTAVYYCNAKGWVWPFPSYYPYDSWGQGTQVTVSS` . Reported polyreactivity (PSR sort gate)?
high polyreactivity

Item under review: `QVQLVESGGGLVQAGGSLSLSCAASGSTFIHNAMGWYRQAPGKERELVAAITSGGSTYYADSVKGRFTISRDNAKNTVYLQMNSLKPEDTAVYYCNRVSWRYSTMEYWGHGTQVTVSS` . Reported polyreactivity (PSR sort gate)?
high polyreactivity
